Hi there, I'd appreciate the recorded melting point for every entry that follows.

Reference set, count: 2
{"columns": ["Compound string", "melting point"],
 "data": [
  ["CC(=O)Nc1c(-c2cc(Cl)ccc2O)c2cc(C(F)(F)F)ccc2[nH]c1=O", "222 to 224 °C"],
  ["Cc1cc(C(C)(C)C)c(Cl)c(C)c1SSc1c(C)cc(C(C)(C)C)c(Cl)c1C", "128 to 129 °C"]
]}

Alright, here's another compound for you.
query: What does the record list as melting point for `Cn1c(=O)nc(-c2ccccc2)c2c3c(sc21)CCCC3` ?
result: 215 to 216 °C

###

Consider the following compounds; for each one, report its melting point.

{"columns": ["Compound", "melting point"],
 "data": [
  ["CN(C)S(=O)(=O)c1ccc(C#N)c(C(F)(F)F)c1", "133 to 136 °C"]
]}

Record melting point per entry; entries follow.
1. CN1CCN(c2ccc(Nc3ncc4ccc(-c5cccc6c5OCCO6)n4n3)cc2)CC1
2. N=C(NC=Cc1ccc([N+](=O)[O-])cc1)c1ccccc1
3. Cc1c(-c2ccccc2)n(-c2ccccc2Cl)c(-c2ccccc2)cc1=S
4. CCc1ccc(-n2nc(Cl)cc2-c2ccc(S(C)(=O)=O)cc2)cc1N
5. CCc1cc(=O)n(-c2cc3[nH]c(=O)sc3cc2F)c(=O)n1C
6. CC(C)C(=O)N1C2=NC(C)(C)N(C)C(=O)N2c2ccccc21
7. CCOC(=O)c1c(-c2ccccc2)nc2ccccn12
8. CC(C)CCNC(=O)c1ccccc1-c1ccccc1CNC(=O)c1ccccc1

result:
1. 212 to 213 °C
2. 163 to 165 °C
3. 271 to 275 °C
4. 158 to 160 °C
5. > 250 °C
6. 99 to 102 °C
7. 68 °C
8. 147 °C

###

I'd be grateful if you could share measured melting point for these entries.

The cases that follow already have their melting point on record.
{"columns": ["Compound string", "Observed result"],
 "data": [
  ["CN(Cc1cn[nH]c1)C1CCN(C(=O)c2ccc(Nc3nccc(Nc4ccc(F)cc4)n3)cc2)CC1", "140 to 145 °C"],
  ["Cc1cc2ncccc2c(=O)[nH]1", "244 to 245 °C"]
]}

Now take the following compound into account.
query: Param item = `CC(C)c1cnc(NC(=O)Nc2cccc(I)c2)s1` ; retrieve measured melting point.
result: 90 to 92 °C

###

Experimental readout: melting point

Below, 8 compounds whose answers are already recorded.
{"columns": ["Compound", "melting point"],
 "data": [
  ["O=C(O)CCc1cc2ccccc2c(-c2ccccc2)n1", "146 °C"],
  ["O=Cc1cccc2oc3ccccc3c12", "66 to 68 °C"],
  ["CC(C)(OCc1nn(C(c2ccccc2)(c2ccccc2)c2ccccc2)c2ccccc12)C(=O)O", "179 to 180 °C"],
  ["CC[C@@H]1C(=O)N(c2ccc(C#N)c(Cl)c2)[C@@H](C)[C@H]1O", "109 to 110 °C"],
  ["Cn1ccnc1S[Si](C)(C)C", "49 to 52 °C"],
  ["CS(=O)(=O)c1ccc(-c2cc(=O)n(CC(F)(F)F)nc2-c2ccc(F)cc2)cc1", "177 to 179 °C"],
  ["CCCN(CCC)CCCCCOc1ccc2oc(-c3ccc(OC)cc3)cc(=O)c2c1", "63 to 64 °C"],
  ["COC(CN1C(=O)CN=C(c2ccccc2)c2cc(Cl)ccc21)OC", "117 to 119 °C"]
]}

Below are 3 compounds. Give each one its melting point.
1. CC(C)c1cccc(N2CC(=O)NC(=O)N2)c1
2. N#Cc1ccc(NC(=O)NCCCN2CCN(CCCc3ccc(Cl)cc3)CC2)cc1
3. C#CCC(c1ccc(Cl)cc1Cl)C(O)(C(C)=O)c1cccnc1 (stereo unspecified)

result:
130 to 132 °C
219 to 221 °C
132 °C
